tested on: 134 cancer cell lines; assay: Cell viability assay (ATPlite, 72 hours), IC50 on cancer cell line panel; conditions: Homo sapiens, HCC827, read-out: IC50 in cell proliferation assay
Reported pIC50 values are given for each entry in this list.
Schema: pIC50 number; meaning minus log10 of the concentration expressed in molar units.

Lookup result for CCc1cc2c(cc1N1CCC(N3CCOCC3)CC1)C(C)(C)c1[nH]c3cc(C#N)ccc3c1C2=O ; measured pIC50: 5.80

Turning to the following compound.
Lookup result for CNC(=O)c1ccc(-c2cnc3ncc(Cc4ccc5ncccc5c4)n3n2)cc1F ; measured pIC50: 5.08

* * *

test system: 134 cancer cell lines; test: Cell viability assay (ATPlite, 72 hours), IC50 on cancer cell line panel; conditions: Homo sapiens, KG-1, read-out: IC50 in cell proliferation assay, KG-1 cell line (FGFR1OP2-FGFR1)
quantity.measured: IC50 (µM)
Please reply with the bare figure in µM and do not write the unit itself.

Lookup result for Cc1nc(NC(=O)N2CCC[C@H]2C(N)=O)sc1-c1ccnc(C(C)(C)C(F)(F)F)c1 ; measured IC50: 27.7

Others:
Lookup result for CCN1CCN(c2ccc(Nc3cc(N(C)C(=O)Nc4c(Cl)c(OC)cc(OC)c4Cl)ncn3)cc2)CC1 ; measured IC50: 0.00229

Values were extracted from paper PMC9516332.
